Reference source for all entries: patent US20030078221

# target-of-assay: Complement C1q (UniProt P02745;P02746;P02747 P02745:23-245,P02746:28-253,P02747:29-245)
# test-details: FP; nitrocellulose filter binding, MgPBS 37C
# settings: tags: Quidel; chain copies: 6
pKd: −log10 of the molar value.
measured-endpoint: pKd

* C1q clone 36 (ssRNA, 2'-NH2 pyrimidines) RNA: GGGAGGACGAUGCGGGAGGAGUGGAGGUAAACAAUAGGCCGGUAGCGACUCCCACUAACAGCCUCAGACGACUCGCCCGA | 9.54
